These entries and their values trace back to paper PMC9562342.

- assayText: Peptide serum stability assay
- Format: in vitro ADME, human
- protocolConditions: 10% human serum; 24 Hrs; fraction relative to 0 Hrs; mean (SD) of n = 3; read-out: stability in the presence of 10% human serum
No end group written: not given here.
readoutLabel: remaining at 24 h (%)
// return numeric value only (unit: %, not printed)

Q) Quick check: remaining at 24 h of VAGQLALWAVQC [12aa] ?
A) 12.4

====

- assayText: Peptide serum stability assay
- Format: in vitro ADME, human
- protocolConditions: 10% human serum; 4 Hrs; fraction relative to 0 Hrs; mean (SD) of n = 3; read-out: stability in the presence of 10% human serum
No end group written: not given here.
readoutLabel: remaining at 4 h (%)
// return numeric value only (unit: %, not printed)

Q) Quick check: remaining at 4 h of VAGQLALWAVQC [12aa] ?
A) 39.3
